Tested on: ATP;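 note: ATP exposure 15 min at 22 °C before imaging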
Test: switch fluorescence ratio, 500 uM ATP over buffer (Cy3 cluster intensity, sum of 5 cycles each) (fold (ratio)); higher = stronger signal-on switching upon ATP binding; sequences stand for … in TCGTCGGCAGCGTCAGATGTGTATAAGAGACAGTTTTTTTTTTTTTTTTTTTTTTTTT…TC
Conditions: aptamer strand: ATP DNA aptamer (quencher-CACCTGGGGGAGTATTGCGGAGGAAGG + anchor), 100 nM annealed; ATP concentration: 500 uM
quantity.kind: switch fluorescence ratio
Enter a number only.

As a guide, the following entries are already answered.
1) AGTTTTTGGC = 0.999
2) GGGGAGGTAG = 0.985
3) GGCGCCGGCT = 0.992

Quick note, switch fluorescence ratio for TCGCTCACGG landed at 1.03

Quick note, switch fluorescence ratio for TGGACGGGGC landed at 1.03

Quick note, switch fluorescence ratio for TTTTGTGG landed at 1.01

Quick note, switch fluorescence ratio for TTCAGGGTTT landed at 1.5
